The measurements presented in this section are drawn from patent US7205382B2.

tested on: human IgG-Fc; assay: Cellulose-immobilized 13-mer peptide variants incubated with human IgG-Fc, anti-human IgG-AP detection; type: binding; design: key: No binding of immunoglobulin for the defined peptide variant, detection negative: 0; Binding of immunoglobulin for the defined peptide variant, detection positive: +; conditions: IgG-Fc 1 μg/ml in blocking buffer, 3 h room temperature
Bridge positions count the residues as written; N and C are the ends. Square brackets hold non-standard residues; d marks the D form. Ends that are not written are not given here. cellulose = not defined here; βAla = NCCC(=O)O
measurement_type: Result for incubation with human IgG-Fc (immunoglobulin binding detection)

Hey, human IgG-Fc data for 02L: cellulose-bound 13-mer variant DLAWHLGELVWCT-(βA)(βA) (DLAWHLGELVWCT[βAla][βAla]; not fully specified; printed as DLAWHLGELVWCT-(βA)(βA); also: cellulose-bound) : Result for incubation with human IgG-Fc (immunoglobulin binding detection) came out at 0

Hey, human IgG-Fc data for 07D: cellulose-bound 13-mer variant DCAWHLDELVWCT-(βA)(βA) (DCAWHLDELVWCT-{βAla-βAla-cellulose}; disulfide 2-12 (inferred); not fully specified (N-terminus); printed as DCAWHLDELVWCT-(βA)(βA); reading uncertain) : Result for incubation with human IgG-Fc (immunoglobulin binding detection) came out at +

Hey, human IgG-Fc data for 08R: cellulose-bound 13-mer variant DCAWHLGRLVWCT-(βA)(βA) (DCAWHLGRLVWCT-{βAla-βAla-cellulose}; disulfide 2-12 (inferred); reading uncertain; also: printed as DCAWHLGRLVWCT-(βA)(βA)) : Result for incubation with human IgG-Fc (immunoglobulin binding detection) came out at +

Hey, human IgG-Fc data for 01G: cellulose-bound 13-mer variant GCAWHLGELVWCT-(βA)(βA) (GCAWHLGELVWCT-{βAla-βAla-cellulose}; disulfide 2-12 (inferred); reading uncertain; also: printed as GCAWHLGELVWCT-(βA)(βA)) : Result for incubation with human IgG-Fc (immunoglobulin binding detection) came out at +

====

I'd be grateful if you could share measured Result for incubation with human plasma (immunoglobulin binding detection) for these entries.
tested on: immunoglobulins in human plasma; assay: Cellulose-immobilized 13-mer peptide variants incubated with human plasma, anti-human IgG-AP detection; type: binding; parameters: key: No binding of immunoglobulin for the defined peptide variant, detection negative: 0; Binding of immunoglobulin for the defined peptide variant, detection positive: +; conditions: human plasma as sample, diluted 1:10,000 in blocking buffer, 3 h room temperature
Bridge positions count the residues as written; N and C are the ends. Ends that are not written are not given here. cellulose = not defined here; βAla = NCCC(=O)O
Answer with a number only.

Hey, immunoglobulins in human plasma data for 09T: cellulose-bound 13-mer variant DCAWHLGETVWCT-(βA)(βA) (DCAWHLGETVWCT-{βAla-βAla-cellulose}; disulfide 2-12 (inferred); reading uncertain; also: printed as DCAWHLGETVWCT-(βA)(βA)) : Result for incubation with human plasma (immunoglobulin binding detection) came out at 0

Hey, immunoglobulins in human plasma data for 10S: cellulose-bound 13-mer variant DCAWHLGELSWCT-(βA)(βA) (DCAWHLGELSWCT-{βAla-βAla-cellulose}; disulfide 2-12 (inferred); reading uncertain; also: printed as DCAWHLGELSWCT-(βA)(βA)) : Result for incubation with human plasma (immunoglobulin binding detection) came out at 0

Hey, immunoglobulins in human plasma data for 07I: cellulose-bound 13-mer variant DCAWHLIELVWCT-(βA)(βA) (DCAWHLIELVWCT-{βAla-βAla-cellulose}; disulfide 2-12 (inferred); not fully specified (N-terminus); printed as DCAWHLIELVWCT-(βA)(βA); reading uncertain) : Result for incubation with human plasma (immunoglobulin binding detection) came out at 0

Hey, immunoglobulins in human plasma data for 08Y: cellulose-bound 13-mer variant DCAWHLGYLVWCT-(βA)(βA) (DCAWHLGYLVWCT-{βAla-βAla-cellulose}; disulfide 2-12 (inferred); reading uncertain; also: printed as DCAWHLGYLVWCT-(βA)(βA)) : Result for incubation with human plasma (immunoglobulin binding detection) came out at 0

====

test system: human IgG-Fc; assay: Cellulose-immobilized 13-mer peptide variants incubated with human IgG-Fc, anti-human IgG-AP detection; format: binding; design: key: No binding of immunoglobulin for the defined peptide variant, detection negative: 0; Binding of immunoglobulin for the defined peptide variant, detection positive: +; conditions: IgG-Fc 1 μg/ml in blocking buffer, 3 h room temperature
Bridge positions count the residues as written; N and C are the ends. Ends that are not written are not given here. cellulose = not defined here; βAla = NCCC(=O)O
measurement_type: Result for incubation with human IgG-Fc (immunoglobulin binding detection)

Hey, human IgG-Fc data for 08S: cellulose-bound 13-mer variant DCAWHLGSLVWCT-(βA)(βA) (DCAWHLGSLVWCT-{βAla-βAla-cellulose}; disulfide 2-12 (inferred); reading uncertain; also: printed as DCAWHLGSLVWCT-(βA)(βA)) : Result for incubation with human IgG-Fc (immunoglobulin binding detection) came out at +

Hey, human IgG-Fc data for 01S: cellulose-bound 13-mer variant SCAWHLGELVWCT-(βA)(βA) (SCAWHLGELVWCT-{βAla-βAla-cellulose}; disulfide 2-12 (inferred); reading uncertain; also: printed as SCAWHLGELVWCT-(βA)(βA)) : Result for incubation with human IgG-Fc (immunoglobulin binding detection) came out at +

====

tested on: serum albumin; assay: Cellulose-immobilized 13-mer peptide variants incubated with serum albumin (negative control), anti-human IgG-AP detection; format: binding; set-up: key: No binding of immunoglobulin for the defined peptide variant, detection negative: 0; Binding of immunoglobulin for the defined peptide variant, detection positive: +; conditions: blocking buffer without addition, 3 h room temperature
Bridge positions count the residues as written; N and C are the ends. Ends that are not written are not given here. cellulose = not defined here; βAla = NCCC(=O)O
measurement_type: Result for incubation with serum albumin (immunoglobulin binding detection)

Notebook: 06S: cellulose-bound 13-mer variant DCAWHSGELVWCT-(βA)(βA) (DCAWHSGELVWCT-{βAla-βAla-cellulose}; disulfide 2-12 (inferred); not fully specified (N-terminus); printed as DCAWHSGELVWCT-(βA)(βA); reading uncertain) , Result for incubation with serum albumin (immunoglobulin binding detection) read as 0

Notebook: 08S: cellulose-bound 13-mer variant DCAWHLGSLVWCT-(βA)(βA) (DCAWHLGSLVWCT-{βAla-βAla-cellulose}; disulfide 2-12 (inferred); reading uncertain; also: printed as DCAWHLGSLVWCT-(βA)(βA)) , Result for incubation with serum albumin (immunoglobulin binding detection) read as 0

====

test system: immunoglobulins in human plasma; assay: Cellulose-immobilized 13-mer peptide variants incubated with human plasma, anti-human IgG-AP detection; assay type: binding; design: key: No binding of immunoglobulin for the defined peptide variant, detection negative: 0; Binding of immunoglobulin for the defined peptide variant, detection positive: +; conditions: human plasma as sample, diluted 1:10,000 in blocking buffer, 3 h room temperature
Bridge positions count the residues as written; N and C are the ends. Square brackets hold non-standard residues; d marks the D form. Ends that are not written are not given here. cellulose = not defined here; βAla = NCCC(=O)O
I'd be grateful if you could share measured Result for incubation with human plasma (immunoglobulin binding detection) for these entries.
Answer with a number only.

Notebook: 05K: cellulose-bound 13-mer variant DCAWKLGELVWCT-(βA)(βA) (disulfide 2-12 (inferred); not fully specified (N-terminus, C-terminus); printed as DCAWKLGELVWCT-(βA)(βA); also: cellulose-bound) , Result for incubation with human plasma (immunoglobulin binding detection) read as 0

Notebook: 02I: cellulose-bound 13-mer variant DIAWHLGELVWCT-(βA)(βA) (DIAWHLGELVWCT[βAla][βAla]; not fully specified; printed as DIAWHLGELVWCT-(βA)(βA); also: cellulose-bound) , Result for incubation with human plasma (immunoglobulin binding detection) read as 0

Notebook: 01F: cellulose-bound 13-mer variant FCAWHLGELVWCT-(βA)(βA) (FCAWHLGELVWCT-{βAla-βAla-cellulose}; disulfide 2-12 (inferred); reading uncertain; also: printed as FCAWHLGELVWCT-(βA)(βA)) , Result for incubation with human plasma (immunoglobulin binding detection) read as 0

====

system: immunoglobulins in human plasma; experiment: Cellulose-immobilized 13-mer peptide variants incubated with human plasma, anti-human IgG-AP detection; assay type: binding; parameters: key: No binding of immunoglobulin for the defined peptide variant, detection negative: 0; Binding of immunoglobulin for the defined peptide variant, detection positive: +; conditions: human plasma as sample, diluted 1:10,000 in blocking buffer, 3 h room temperature
Bridge positions count the residues as written; N and C are the ends. Ends that are not written are not given here. cellulose = not defined here; βAla = NCCC(=O)O
I'd be grateful if you could share measured Result for incubation with human plasma (immunoglobulin binding detection) for these entries.
Answer with a number only.

Notebook: 08A: cellulose-bound 13-mer variant DCAWHLGALVWCT-(βA)(βA) (DCAWHLGALVWCT-{βAla-βAla-cellulose}; disulfide 2-12 (inferred); not fully specified (N-terminus); printed as DCAWHLGALVWCT-(βA)(βA); reading uncertain) , Result for incubation with human plasma (immunoglobulin binding detection) read as 0

Notebook: 03M: cellulose-bound 13-mer variant DCMWHLGELVWCT-(βA)(βA) (DCMWHLGELVWCT-{βAla-βAla-cellulose}; disulfide 2-12 (inferred); reading uncertain; also: printed as DCMWHLGELVWCT-(βA)(βA)) , Result for incubation with human plasma (immunoglobulin binding detection) read as 0

Notebook: 10T: cellulose-bound 13-mer variant DCAWHLGELTWCT-(βA)(βA) (DCAWHLGELTWCT-{βAla-βAla-cellulose}; disulfide 2-12 (inferred); reading uncertain; also: printed as DCAWHLGELTWCT-(βA)(βA)) , Result for incubation with human plasma (immunoglobulin binding detection) read as 0

Notebook: 09N: cellulose-bound 13-mer variant DCAWHLGENVWCT-(βA)(βA) (DCAWHLGENVWCT-{βAla-βAla-cellulose}; disulfide 2-12 (inferred); reading uncertain; also: printed as DCAWHLGENVWCT-(βA)(βA)) , Result for incubation with human plasma (immunoglobulin binding detection) read as 0

Notebook: 10Q: cellulose-bound 13-mer variant DCAWHLGELQWCT-(βA)(βA) (DCAWHLGELQWCT-{βAla-βAla-cellulose}; disulfide 2-12 (inferred); reading uncertain; also: printed as DCAWHLGELQWCT-(βA)(βA)) , Result for incubation with human plasma (immunoglobulin binding detection) read as 0

Notebook: 07C: cellulose-bound 13-mer variant DCAWHLCELVWCT-(βA)(βA) (DCAWHLCELVWCT-{βAla-βAla-cellulose}; not fully specified (N-terminus); printed as DCAWHLCELVWCT-(βA)(βA); cysteine pairing not given here; reading uncertain) , Result for incubation with human plasma (immunoglobulin binding detection) read as 0

Notebook: 03W: cellulose-bound 13-mer variant DCWWHLGELVWCT-(βA)(βA) (DCWWHLGELVWCT-{βAla-βAla-cellulose}; disulfide 2-12 (inferred); reading uncertain; also: printed as DCWWHLGELVWCT-(βA)(βA)) , Result for incubation with human plasma (immunoglobulin binding detection) read as 0
